Ref: ChEMBL document CHEMBL4184296

Tested on: HepG2
experiment summary: Cytotoxicity against human HepG2 cells assessed as reduction in cell viability after 24 hrs by MTT assay
Format: cell-based
condition notes: hepg2, 24 h
observed property: MTC

CC(C)c1ccc(OCC(=O)NNC(=S)NC(=O)c2cccs2)cc1 :: > 256 µg/mL

Asked: Name the recorded MTC for "CC(C)c1ccc(OCC(=O)NNC(=S)NC(=O)c2cc3ccccc3[nH]2)cc1" .
Given back: > 256 µg/mL

Asked: Name the recorded MTC for "CC(C)c1ccc(OCC(=O)NNC(=S)NC(=O)c2cc3ccccc3o2)cc1" .
Given back: > 128 µg/mL

Asked: Name the recorded MTC for "CC(C)c1ccc(OCC(=O)NNC(=S)NC(=O)/C=C/c2ccco2)cc1" .
Given back: > 256 µg/mL

Asked: Name the recorded MTC for "COc1ccc2[nH]c(C(=O)NC(=S)NNC(=O)COc3ccc(C(C)C)cc3)cc2c1" .
Given back: 32 µg/mL

Asked: Name the recorded MTC for "CC(C)c1ccc(OCC(=O)NNC(=S)NC(=O)c2ccc(-c3ccccc3)o2)cc1" .
Given back: 64 µg/mL
